Each record here notes measured gMFI.
- Study target: T1, human CD300LB on primary human monocytes (human, UniProt A8K4G0 18-201)
- T1 construct: Endogenous protein on primary cells; that the target is CD300LB is inferred from the antibodies being anti-CD300LB antibodies; also called Monocyte donor 1281; Monocyte donor 1282
- T1 sequence: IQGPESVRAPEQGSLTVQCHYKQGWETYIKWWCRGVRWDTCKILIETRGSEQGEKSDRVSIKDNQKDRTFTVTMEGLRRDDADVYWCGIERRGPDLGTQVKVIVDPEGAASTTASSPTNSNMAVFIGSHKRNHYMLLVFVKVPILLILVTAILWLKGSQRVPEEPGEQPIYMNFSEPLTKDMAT
- Protocol details: flow cytometry, primary human monocytes donor 1284, 10 ug/mL antibody, isotype control subtracted
API: value field is a number in gMFI; no unit string.

- anti-CD300LB antibody CD-05 (antibody, V domains shown) VH: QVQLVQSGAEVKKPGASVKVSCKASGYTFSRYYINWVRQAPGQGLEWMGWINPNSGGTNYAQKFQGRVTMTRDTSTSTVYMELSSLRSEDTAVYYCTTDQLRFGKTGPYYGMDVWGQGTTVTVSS VL: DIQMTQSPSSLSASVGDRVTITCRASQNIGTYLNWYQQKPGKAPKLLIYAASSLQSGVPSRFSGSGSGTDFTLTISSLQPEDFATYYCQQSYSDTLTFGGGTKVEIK: 166
- anti-CD300LB antibody CD-06 (antibody, V domains shown) VH: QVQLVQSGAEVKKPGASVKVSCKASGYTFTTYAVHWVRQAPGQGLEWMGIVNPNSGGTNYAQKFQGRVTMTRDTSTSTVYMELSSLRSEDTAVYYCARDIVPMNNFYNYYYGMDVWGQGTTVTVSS VL: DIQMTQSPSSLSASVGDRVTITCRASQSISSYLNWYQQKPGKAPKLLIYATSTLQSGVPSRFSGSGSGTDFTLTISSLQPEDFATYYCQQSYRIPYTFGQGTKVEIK: 1010
- anti-CD300LB antibody CD-09 (antibody, V domains shown) VH: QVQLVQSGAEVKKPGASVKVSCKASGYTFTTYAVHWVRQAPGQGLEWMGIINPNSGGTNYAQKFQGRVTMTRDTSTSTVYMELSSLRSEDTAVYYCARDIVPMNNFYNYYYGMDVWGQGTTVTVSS VL: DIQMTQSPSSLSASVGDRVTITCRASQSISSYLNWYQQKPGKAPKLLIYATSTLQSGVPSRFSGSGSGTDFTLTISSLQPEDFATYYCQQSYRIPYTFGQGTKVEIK: 1040
- anti-CD300LB antibody CD-08 (antibody, V domains shown) VH: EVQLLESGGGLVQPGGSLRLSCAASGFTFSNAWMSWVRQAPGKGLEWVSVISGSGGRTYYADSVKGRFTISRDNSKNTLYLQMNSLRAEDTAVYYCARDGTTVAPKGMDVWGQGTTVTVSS VL: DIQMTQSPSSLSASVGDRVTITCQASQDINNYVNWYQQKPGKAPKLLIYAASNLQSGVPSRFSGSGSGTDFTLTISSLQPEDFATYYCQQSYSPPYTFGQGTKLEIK: 1400

Incoming: Read off the recorded gMFI for anti-CD300LB antibody CD-07 (antibody, V domains shown) VH: QVQLVQSGAEVKKPGASVKVSCKASGYTFTNYRMHWVRQAPGQGLEWMGWINPNSGGTIYAQKFQGRVTMTRDTSTSTVYMELSSLRSEDTAVYYCARDLDYWGQGTLVTVSS VL: DIQMTQSPSSLSASVGDRVTITCQASQDISNYLNWYQQKPGKAPKLLIYGASSLQSGVPSRFSGSGSGTDFTLTISSLQPEDFATYYCQQSYSTPWTFGPGTKVEIK
Outgoing: -189
